experimental.system: T1, Cdc13-L91R (Saccharomyces cerevisiae, UniProt P32797 1-924, L91R)
T1 sequence: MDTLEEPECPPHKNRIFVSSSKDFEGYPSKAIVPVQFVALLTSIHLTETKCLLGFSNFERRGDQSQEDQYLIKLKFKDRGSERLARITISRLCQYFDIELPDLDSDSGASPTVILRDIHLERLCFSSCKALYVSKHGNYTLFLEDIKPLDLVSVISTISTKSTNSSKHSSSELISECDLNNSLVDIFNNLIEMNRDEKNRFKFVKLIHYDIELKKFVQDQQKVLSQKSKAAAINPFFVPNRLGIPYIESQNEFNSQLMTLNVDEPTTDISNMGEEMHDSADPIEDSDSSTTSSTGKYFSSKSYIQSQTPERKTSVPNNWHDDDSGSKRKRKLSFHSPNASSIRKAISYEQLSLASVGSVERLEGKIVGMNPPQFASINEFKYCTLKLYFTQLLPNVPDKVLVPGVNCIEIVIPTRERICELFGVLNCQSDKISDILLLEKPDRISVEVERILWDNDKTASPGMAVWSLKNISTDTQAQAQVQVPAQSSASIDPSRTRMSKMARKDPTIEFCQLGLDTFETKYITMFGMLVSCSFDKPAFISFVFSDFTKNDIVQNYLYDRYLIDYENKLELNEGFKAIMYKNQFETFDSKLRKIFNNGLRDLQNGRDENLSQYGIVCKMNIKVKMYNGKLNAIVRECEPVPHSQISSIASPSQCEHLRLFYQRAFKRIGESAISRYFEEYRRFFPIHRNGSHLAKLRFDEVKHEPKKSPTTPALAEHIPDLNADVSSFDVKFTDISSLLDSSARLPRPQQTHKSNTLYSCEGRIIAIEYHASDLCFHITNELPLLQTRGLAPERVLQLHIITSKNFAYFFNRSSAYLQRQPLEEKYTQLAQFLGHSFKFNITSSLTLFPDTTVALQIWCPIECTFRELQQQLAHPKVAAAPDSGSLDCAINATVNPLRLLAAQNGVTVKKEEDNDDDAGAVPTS
method: EMSA
reported.endpoint: Kd (pM)

INSERT INTO measurements (binder, reported_endpoint, observed_result) VALUES
  ('GTGTGGGTGTG (ssDNA) [Tel11]', 'Kd', 5);

Value source: paper PMC3874162
